Test system: S. aureus BAA-2312 (Sa12)
Experiment: MIC, microdilution (CLSI)
Type: cell-based
Conditions: Staphylococcus aureus, BAA2312; Sa12, methicillin-resistant S. aureus BAA-2312; n = 3; read-out: MIC
RECORDED ENDPOINT: MIC (µg/mL)
Note: unit µg/mL is implicit; provide only the numeric part.

Enquiry: Param readout= MIC; system= S. aureus BAA-2312 (Sa12); entry= Cc1cc(NCc2cn(-c3ccc(C(=O)O)cc3)nc2-c2cc(C(F)(F)F)cc(C(F)(F)F)c2)ccc1Br ; returns value.
Return: 1

Enquiry: // query: CC(C)(C)c1ccc(NCc2cn(-c3ccc(C(=O)O)cc3)nc2-c2cc(C(F)(F)F)cc(C(F)(F)F)c2)cc1
Return: 1

Enquiry: Do the same for O=C(O)c1ccc(-n2cc(CNc3ccccc3)c(-c3cc(C(F)(F)F)cc(C(F)(F)F)c3)n2)cc1 please
Return: 2

Note: attention shifts to another entry.
Enquiry: Request: MIC, test system S. aureus BAA-2312 (Sa12), entry O=C(O)c1ccc(-n2cc(CNc3ccc(Br)c(C(F)(F)F)c3)c(-c3cc(C(F)(F)F)cc(C(F)(F)F)c3)n2)cc1
Return: 2
